System: Escherichia coli TOP10
ASSAY NAME: shrunken log2 fold change of peptide-encoding DNA abundance (4.5 h post-induction vs induction); higher = less antimicrobial activity (less host growth inhibition)
CONDITION CONTEXT: time post-induction: 4.5 h; library: site-saturation at positions 5, 18, 19, 20
Give shrunken log2 fold change for every item shown.
Give bare numbers.

For the sequence RRIRRRPPRLPRPRPRPTNGPRP , give its reported shrunken log2 fold change.
-0.168

For the sequence RRIRGRPPRLPRPRPRPVKSPRP , give its reported shrunken log2 fold change.
0.0201

For the sequence RRIRQRPPRLPRPRPRPCRLPRP , give its reported shrunken log2 fold change.
-0.15

For the sequence RRIRKRPPRLPRPRPRPIDCPRP , give its reported shrunken log2 fold change.
0.0653

For the sequence RRIRVRPPRLPRPRPRPKECPRP , give its reported shrunken log2 fold change.
-0.0265

Field: shrunken log2 fold change. Fill in for each record below.
1. RRIRWRPPRLPRPRPRPWSEPRP
2. RRIRLRPPRLPRPRPRPTHNPRP
3. RRIRGRPPRLPRPRPRPFMVPRP
4. RRIRWRPPRLPRPRPRPVRRPRP
5. RRIRWRPPRLPRPRPRPGEQPRP

[-0.206, -0.0209, -0.131, 0.365, 0.0722]

---

System: Escherichia coli TOP10;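 further: peptides expressed intracellularly from a pBAD plasmid library in pooled LB shake-flask culture, induced with 0.3% L-arabinose, DNA abundance read by NGS, three biological replicates, DESeq2 with apeglm shrinkage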
ASSAY NAME: shrunken log2 fold change of peptide-encoding DNA abundance (4.5 h post-induction vs induction); higher = less antimicrobial activity (less host growth inhibition)
CONDITION CONTEXT: time post-induction: 4.5 h; library: site-saturation at positions 5, 18, 19, 20
Outcome label depends on shrunken log2 fold change relative to 0.05: at/above gives 1, below gives 0.

Known results for sequences:
# check: shrunken log2 fold change of RRIRLRPPRLPRPRPRPCEPPRP is greater than or equal to 0.05
0

# check: shrunken log2 fold change of RRIRKRPPRLPRPRPRPIHNPRP is greater than or equal to 0.05
0

---
# check: shrunken log2 fold change of RRIRMRPPRLPRPRPRPMAAPRP is greater than or equal to 0.05
1

# check: shrunken log2 fold change of RRIRHRPPRLPRPRPRPPFDPRP is greater than or equal to 0.05
0

# check: shrunken log2 fold change of RRIRQRPPRLPRPRPRPQMQPRP is greater than or equal to 0.05
1

# check: shrunken log2 fold change of RRIRVRPPRLPRPRPRPHHSPRP is greater than or equal to 0.05
0

# check: shrunken log2 fold change of RRIRTRPPRLPRPRPRPPMQPRP is greater than or equal to 0.05
1

# check: shrunken log2 fold change of RRIRRRPPRLPRPRPRPAWYPRP is greater than or equal to 0.05
1

# check: shrunken log2 fold change of RRIRCRPPRLPRPRPRPTQIPRP is greater than or equal to 0.05
1

# check: shrunken log2 fold change of RRIRKRPPRLPRPRPRPETNPRP is greater than or equal to 0.05
1

# check: shrunken log2 fold change of RRIRERPPRLPRPRPRPIIAPRP is greater than or equal to 0.05
0

# check: shrunken log2 fold change of RRIRVRPPRLPRPRPRPCYNPRP is greater than or equal to 0.05
0

# check: shrunken log2 fold change of RRIRPRPPRLPRPRPRPNSAPRP is greater than or equal to 0.05
1

# check: shrunken log2 fold change of RRIRRRPPRLPRPRPRPEEYPRP is greater than or equal to 0.05
0
